experiment: recombinant UMI read abundance after kanamycin selection (control-corrected) (log10(CPM+1)); higher = more efficient recombination; extreme values may be limits of the assay; sequences stand for … in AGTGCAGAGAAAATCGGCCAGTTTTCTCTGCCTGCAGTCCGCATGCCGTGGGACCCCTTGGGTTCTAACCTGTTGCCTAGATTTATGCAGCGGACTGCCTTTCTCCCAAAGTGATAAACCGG…AGGTTGGTTTCACT; site = the 11-nt donor
Would you please tag the item yes when its recombinant UMI read abundance (log10) is 0.8 or above, and no when it is below?

Please indicate if the recorded recombinant UMI read abundance (log10) for CTACTAACATGGACCGGTTTTCCCGGTAATCCGTATTTGTA (site CTACTAACTTA) meets or exceeds 0.8.
yes

Please indicate if the recorded recombinant UMI read abundance (log10) for AGGACAACATGGACCGGTTTTCCCGGTAATCCGTATTTGAC (site AGGACAACTGT) meets or exceeds 0.8.
yes

###

test: recombinant barcode read abundance after kanamycin selection (control-corrected) (log10(CPM+1)); higher = more efficient recombination; sequences stand for … in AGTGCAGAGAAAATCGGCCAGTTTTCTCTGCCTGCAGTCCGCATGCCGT…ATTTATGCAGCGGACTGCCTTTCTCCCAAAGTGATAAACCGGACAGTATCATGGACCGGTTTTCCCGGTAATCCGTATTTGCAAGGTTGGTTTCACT; site = the 11-nt target
# recombinant barcode read abundance (log10) per entry
A bare number is all that is needed in reply.

Consider the worked cases shown below.
[
  {
    "entry_sequence": "AAACAGTGTTGGGTTCTAACCTGTTGCCTAC [AAACAGTCTAG_LTGcore_GT_RTGcore_GT] (site AAACAGTCTAG) (LTG core: GT, RTG core: GT)",
    "endpoint_value": 0.0266
  },
  {
    "entry_sequence": "GGTGCCCTGTGGGTTCTAACCTGTTGCCGAG [GGTGCCCCTCG_LTGcore_TG_RTGcore_CT] (site GGTGCCCCTCG) (LTG core: TG, RTG core: CT)",
    "endpoint_value": 0.108
  },
  {
    "entry_sequence": "AAACACATGTGGGTTCTAACCTGTTGCCTAG [AAACACACTAG_LTGcore_TG_RTGcore_CT] (site AAACACACTAG) (LTG core: TG, RTG core: CT)",
    "endpoint_value": 0.247
  },
  {
    "entry_sequence": "GAGTCCAATTGGGTTCTAACCTGTTGCGTAG [GAGTCCACTAC_LTGcore_AT_RTGcore_CT] (site GAGTCCACTAC) (LTG core: AT, RTG core: CT)",
    "endpoint_value": 0.156
  }
]

Next up:
Reported recombinant barcode read abundance (log10) for TAAGAATCGTGGGTTCTAACCTGTTGCCTCG [TAAGAATCTAG_LTGcore_CG_RTGcore_CG] (site TAAGAATCTAG) (LTG core: CG, RTG core: CG) was 0.0781

###

experiment: recombinant barcode read abundance after kanamycin selection (control-corrected) (log10(CPM+1)); higher = more efficient recombination; sequences stand for … in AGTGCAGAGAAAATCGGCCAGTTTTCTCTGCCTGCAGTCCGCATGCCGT…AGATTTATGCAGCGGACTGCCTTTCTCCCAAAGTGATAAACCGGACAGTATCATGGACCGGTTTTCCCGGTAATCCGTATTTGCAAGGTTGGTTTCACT; site = the 11-nt target
quantity_name: recombinant barcode read abundance (log10)
A bare number is all that is needed in reply.

Consider the worked cases shown below.
[
  {
    "entry_sequence": "ACGCTGGCTTGGGTTCTAACCTGTTGCCT (site ACACTGGCTAG)",
    "endpoint_value": 0.386
  },
  {
    "entry_sequence": "TATCCGACTTGGGTTCTAACCTGTTGCCT (site TATCCGACTGG)",
    "endpoint_value": 0.0369
  },
  {
    "entry_sequence": "CACACGGCTTGGGTTCTAACCTGTTGCCT (site CACACGGCTAG)",
    "endpoint_value": 0.518
  },
  {
    "entry_sequence": "AGTCTGGCTTGGGTTCTAACCTGTTGCCT (site AGTCTGGCTAG)",
    "endpoint_value": 0.146
  }
]

Reported recombinant barcode read abundance (log10) for AACGCTTCTTGGGTTCTAACCTGTTGCCT (site ATCGCTTCTAG) was 0.0246
